Below, each entry is listed alongside its reported Survival Days (Mean ± SD).
System: vincristine (VCR)-resistant mouse leukemia (P388/VCR) cells
Test: Antitumor agent potentiating effect in vincristine-resistant tumor bearing mouse (Example 11, i.p. 5 days)
Type: in vivo
Details: compound 100 mg/kg i.p. + VCR 30 μg/kg i.p.

>  <SMILES>
CC1=C(C(=O)OCc2cccc(C)n2)C(C2=COCCO2)C(C(=O)OCc2cccc(C)n2)=C(C)N1

>  <Survival Days (Mean ± SD) / days>
13.7

$$$$
>  <SMILES>
CC1=C(C(=O)OCCCc2cccnc2)C(C2=COCCO2)C(C(=O)OCCCc2cccnc2)=C(C)N1

>  <Survival Days (Mean ± SD) / days>
13.7

$$$$
>  <SMILES>
CC1=C(C(=O)OCc2ccccn2)C(C2=COCCO2)C(C(=O)OCc2ccccn2)=C(C)N1

>  <Survival Days (Mean ± SD) / days>
14.5

$$$$
>  <SMILES>
CCc1ccc(COC(=O)C2=C(C)NC(C)=C(C(=O)OCc3ccc(CC)cn3)C2C2=COCCO2)nc1

>  <Survival Days (Mean ± SD) / days>
14.8

$$$$
>  <SMILES>
CC1=C(C(=O)OCCc2ccccn2)C(C2=COCCO2)C(C(=O)OCCc2ccccn2)=C(C)N1

>  <Survival Days (Mean ± SD) / days>
13.7

$$$$
